# Test system: inflammation created by injecting carrageenin into the hind paws of rats
# testMethodNotes: Carrageenin Assay
# Type: in vivo
# measurementParameters: Rattus norvegicus, ip, 50 mg/kg i.p., prior to carrageenin injection, read-out: Percent Inhibition (Antiinflammatory Activity in the Carrageenin Assay)
Output met for inhibition in vivo at 50 mg/kg not less than 40%; output not met otherwise.

Example results:
CCc1cc(C(C)=O)c(O)cc1OCCCCCCS(C)(=O)=O not met
CCc1cc(C(C)=O)c(O)cc1OCCCCc1nn[nH]n1 met
CCc1cc(C(C)=O)c(O)cc1OCCCCCCC#N not met
C=CCc1cc(C(C)=O)c(O)cc1OCCCCCC(=O)NO not met

input: Threshold query (inhibition in vivo at 50 mg/kg >= 40%) on `CCc1cc(C(C)=O)c(O)cc1OCCCCCC(C)(C)C(=O)O`
output: not met

input: Reported inhibition in vivo at 50 mg/kg reaches at least 40% for `CCc1cc(C(C)=O)c(O)cc1OCc1cccc(C#N)c1` ?
output: met

input: Reported inhibition in vivo at 50 mg/kg at or above 40%? `CCc1cc(C(C)=O)c(O)cc1OCCCCc1nnn(C)n1`
output: met

input: Check if inhibition in vivo at 50 mg/kg >= 40% (inclusive). Item: `CCc1cc(C(C)=O)c(O)cc1OCCCCCC(C)(C)C#N`
output: not met

Reference for the values: patent US5098613A
